# Tested on: HTC-C3 (Thyroid Gland Carcinoma)
# measurement_notes: combination Emax (second highest fraction inhibited in the dose matrix, 72 h); higher = more inhibition; extreme values may be limits of the assay
measurement_type: combination Emax
Numbers only.

Worked cases, combination Emax given:
[
  {
    "compound": "CC(=O)Nc1cccc(-n2c(=O)n(C3CC3)c(=O)c3c(Nc4ccc(I)cc4F)n(C)c(=O)c(C)c32)c1 [Trametinib] + Cc1nc(-c2cn3c(n2)-c2ccc(-c4cnn(C(C)(C)C(N)=O)c4)cc2OCC3)n(C(C)C)n1 [Taselisib] (first compound max 1 µM, 7x7, partner max 10 µM)",
    "assayed_system": "HTC-C3 (Thyroid Gland Carcinoma)",
    "meas_value": 0.744
  },
  {
    "compound": "NC1(C(=O)N[C@@H](CCO)c2ccc(Cl)cc2)CCN(c2ncnc3[nH]ccc23)CC1 [Capivasertib] + CC(=O)c1c(C)c2cnc(Nc3ccc(N4CCNCC4)cn3)nc2n(C2CCCC2)c1=O [Palbociclib] (first compound max 10 µM, 7x7, partner max 10 µM)",
    "assayed_system": "HTC-C3 (Thyroid Gland Carcinoma)",
    "meas_value": 0.474
  }
]

Turning now to a further record.
Q) Return the recorded combination Emax value; entry: CC1(C)CCC(CN2CCN(c3ccc(C(=O)NS(=O)(=O)c4ccc(NCC5CCOCC5)c([N+](=O)[O-])c4)c(Oc4cnc5[nH]ccc5c4)c3)CC2)=C(c2ccc(Cl)cc2)C1 [Venetoclax] + Cn1cnc2c(F)c(Nc3ccc(Br)cc3Cl)c(C(=O)NOCCO)cc21 [Selumetinib] (first compound max 1 µM, 7x7, partner max 3 µM)
A) 0.508

----------
# Test system: AsPC-1 (Pancreatic Carcinoma)
# measurement_notes: combination Emax (second highest fraction inhibited in the dose matrix, 72 h); higher = more inhibition; extreme values may be limits of the assay
I'd be grateful if you could share measured combination Emax for these entries.
Numbers only.

[
  {
    "molecule": "COc1nnc2ccc(N3CCC(c4ccc(OCCN5CCN(C)C(=O)[C@H]5C)cc4)CC3)nn12 [AZD5153] + CCN(CCO)CCCOc1ccc2c(Nc3cc(CC(=O)Nc4cccc(F)c4)[nH]n3)ncnc2c1 [AZD2811] (first compound max 1 µM, 7x7, partner max 1 µM)",
    "assayed_system": "AsPC-1 (Pancreatic Carcinoma)",
    "meas_value": 0.258
  },
  {
    "molecule": "C[C@@H](c1ccc2nccn2c1)n1nnc2ncc(-c3cnn(C)c3)nc21 [Savolitinib] + CN(CC[C@H](CSC1=CC=CC=C1)NC2=C(C=C(C=C2)S(=O)(=O)NC(=O)C3=CC=C(C=C3)N4CCC(CC4)[C@H](C5=CC=CC=C5C6=CC=C(C=C6)Cl)O)S(=O)(=O)C(F)(F)F)CCO [AZD4320] (first compound max 1 µM, 7x7, partner max 1 µM)",
    "assayed_system": "AsPC-1 (Pancreatic Carcinoma)",
    "meas_value": 0.572
  },
  {
    "molecule": "Cn1cnc2c(F)c(Nc3ccc(Br)cc3Cl)c(C(=O)NOCCO)cc21 [Selumetinib] + C[C@@H]1COCCN1C2=NC(=NC(=C2)C3(CC3)[S@](=N)(=O)C)C4=C5C=CNC5=NC=C4 [AZD6738] (first compound max 10 µM, 7x7, partner max 10 µM)",
    "assayed_system": "AsPC-1 (Pancreatic Carcinoma)",
    "meas_value": 0.435
  },
  {
    "molecule": "CC(=O)c1c(C)c2cnc(Nc3ccc(N4CCNCC4)cn3)nc2n(C2CCCC2)c1=O [Palbociclib] + CN(CC[C@H](CSC1=CC=CC=C1)NC2=C(C=C(C=C2)S(=O)(=O)NC(=O)C3=CC=C(C=C3)N4CCC(CC4)[C@H](C5=CC=CC=C5C6=CC=C(C=C6)Cl)O)S(=O)(=O)C(F)(F)F)CCO [AZD4320] (first compound max 10 µM, 7x7, partner max 1 µM)",
    "assayed_system": "AsPC-1 (Pancreatic Carcinoma)",
    "meas_value": 0.488
  },
  {
    "molecule": "CC(=O)c1c(C)c2cnc(Nc3ccc(N4CCNCC4)cn3)nc2n(C2CCCC2)c1=O [Palbociclib] + Cn1cnc2c(F)c(Nc3ccc(Br)cc3Cl)c(C(=O)NOCCO)cc21 [Selumetinib] (first compound max 10 µM, 7x7, partner max 10 µM)",
    "assayed_system": "AsPC-1 (Pancreatic Carcinoma)",
    "meas_value": 0.386
  }
]

Batch lookup, combination Emax per entry.
1. CN(C)CCCOc1ccc(-c2ccc3ncc4c(c3c2)n(C2CCOCC2)c(=O)n4C)cn1 [AZD0156] + C=CCn1c(=O)c2cnc(Nc3ccc(N4CCN(C)CC4)cc3)nc2n1-c1cccc(C(C)(C)O)n1 [AZD1775] (first compound max 1 µM, partner max 1 µM)
2. CN(CCO)CC[C@H](CSc1ccccc1)Nc1ccc(S(=O)(=O)NC(=O)c2ccc(N3CCC([C@@H](O)c4ccccc4-c4ccc(Cl)cc4)CC3)cc2)cc1S(=O)(=O)C(F)(F)F [AZD4320] + CN(C)CCCOc1ccc(-c2ccc3ncc4c(c3c2)n(C2CCOCC2)c(=O)n4C)cn1 [AZD0156] (first compound max 1 µM, 7x7, partner max 1 µM)

A)
[0.317, 0.602]
